test system: Escherichia coli TOP10; experiment: shrunken log2 fold change of peptide-encoding DNA abundance (4.5 h post-induction vs induction); higher = less antimicrobial activity (less host growth inhibition); conditions: time post-induction: 4.5 h; library: site-saturation at positions 5, 18, 19, 20;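 also: peptides expressed intracellularly from a pBAD plasmid library in pooled LB shake-flask culture, induced with 0.3% L-arabinose, DNA abundance read by NGS, three biological replicates, DESeq2 with apeglm shrinkage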
shrunken log2 fold change vs 0.2: at or above is Met, below is Not met.

Examples with answers:
| Seq | Assayed System | Category Label |
| --- | --- | --- |
| RRIRGRPPRLPRPRPRPQDSPRP | Escherichia coli TOP10 | Not met |
| RRIRGRPPRLPRPRPRPKILPRP | Escherichia coli TOP10 | Met |

q: Form field: shrunken log2 fold change at least 0.2? Entry: RRIRTRPPRLPRPRPRPREPPRP
a: Met

q: Form field: shrunken log2 fold change at least 0.2? Entry: RRIRHRPPRLPRPRPRPQELPRP
a: Not met

q: Form field: shrunken log2 fold change at least 0.2? Entry: RRIRKRPPRLPRPRPRPSPRPRP
a: Met

q: Form field: shrunken log2 fold change at least 0.2? Entry: RRIRARPPRLPRPRPRPLHIPRP
a: Not met

q: Form field: shrunken log2 fold change at least 0.2? Entry: RRIRVRPPRLPRPRPRPSGQPRP
a: Not met

q: Form field: shrunken log2 fold change at least 0.2? Entry: RRIRHRPPRLPRPRPRPKGNPRP
a: Not met
